Source listed as PubChem BioAssay AID1159580.

Test: chemical genetic growth profiling, strain panel (AID 1159580);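 note: tested at 20 µM; growth read once vehicle control cultures reached saturation at 30 °C; lower values mean less growth of the strain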
Conditions: S. cerevisiae deletion strains, growth OD, locus YBR231C, strain swc5
About 2,000 (36%) of roughly 5,500 compounds were called active. About 18% were inconclusive and are not listed. Cut-off read from the data, not from the text of the source: active = normalized growth mostly below about 0.91 (no sharp cut-off); inconclusive = no clear call, values can overlap the other calls; inactive = mostly above about 0.92. The list shows a part of the results.
Select the matching outcome among active, inactive

# COMPOUND, CLASS_LABEL
records = [
    ("CC(=O)NO", "inactive"),
]

Recorded test outcome, item COc1c2c(cc3c1OCO3)C13C=C[C@H](OC)CC1N(C2)CC3O (some centres not stated)
inactive

Field: outcome | Entry: "COc1ccc2c(=O)ccoc2c1"
inactive

In this assay, the call recorded for CC(=O)OC1CCC2(C)C3CC(=O)C4(C)C(CC5OC6(CCC(C)CO6)[C@@H](C)C54)C3CC[C@H]2C1 (some centres not stated) was what?
inactive

Identify the outcome logged in this assay for the compound shown: "CC1=C(O)C(=O)C=C2C1=CC=C1[C@@]2(C)CC[C@@]2(C)[C@@H]3C[C@](C)(C(=O)O)CC[C@]3(C)CC[C@]12C"
active

Called result for "COc1cnc(NS(=O)(=O)c2ccc(N)cc2)nc1"
inactive

Could you kindly confirm the outcome this assay logged for CC(=O)O[C@H]1CC[C@]2(C)C3CC(=O)[C@]4(C)C(C(C)=O)=CCC4C3CC[C@H]2C1 (some centres not stated) ?
inactive

Please let me know the test result on file for "CC1(C)S[C@@H]2[C@H](NC(=O)Cc3ccccc3)C(=O)N2[C@H]1C(=O)O" .
inactive
